measuredOn: human cannabinoid type-2 receptors (hCB2) (Homo sapiens, UniProt P34972)
Construct: expressed in transfected cells; host or cells: CHO cells (CHO-hCB2), membranes or intact cells
Sequence (P34972 whole entry): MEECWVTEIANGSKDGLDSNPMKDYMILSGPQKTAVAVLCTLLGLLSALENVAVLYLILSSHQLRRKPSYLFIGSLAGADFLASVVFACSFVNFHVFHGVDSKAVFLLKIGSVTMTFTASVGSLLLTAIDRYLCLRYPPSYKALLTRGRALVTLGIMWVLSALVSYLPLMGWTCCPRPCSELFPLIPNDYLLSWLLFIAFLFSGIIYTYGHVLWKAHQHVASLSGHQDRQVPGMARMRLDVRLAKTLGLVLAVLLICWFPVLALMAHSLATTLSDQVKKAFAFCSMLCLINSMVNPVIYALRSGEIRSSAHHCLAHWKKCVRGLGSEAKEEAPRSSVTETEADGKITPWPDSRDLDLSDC
procedureSummary: Antagonism of CP-55,940 inhibition of adenylyl cyclase, intact CHO-hCB2 cells
Type: cell-based
conditionParameters: CP-55,940 inhibition of adenylyl cyclase, CHO-hCB2 cells
reportedEndpoint: type of antagonism at hCB2Rs

• COc1ccc2c(c1)CCC(c1ccccc1)=C2c1ccc(OCCN2CCCC2)cc1 = surmountable antagonists
• OCCOc1ccc(/C(=C(/CCCl)c2ccccc2)c2ccccc2)cc1 = surmountable antagonists
• O=C(c1ccc(OCCN2CCCCC2)cc1)c1c(-c2ccc(O)cc2)sc2cc(O)ccc12 = surmountable antagonists

* * *

measuredOn: human cannabinoid type-1 receptors (hCB1) (Homo sapiens)
Construct: host or cells: CHO cells (CHO-hCB1), membranes or intact cells
Sequence (P21554 whole entry): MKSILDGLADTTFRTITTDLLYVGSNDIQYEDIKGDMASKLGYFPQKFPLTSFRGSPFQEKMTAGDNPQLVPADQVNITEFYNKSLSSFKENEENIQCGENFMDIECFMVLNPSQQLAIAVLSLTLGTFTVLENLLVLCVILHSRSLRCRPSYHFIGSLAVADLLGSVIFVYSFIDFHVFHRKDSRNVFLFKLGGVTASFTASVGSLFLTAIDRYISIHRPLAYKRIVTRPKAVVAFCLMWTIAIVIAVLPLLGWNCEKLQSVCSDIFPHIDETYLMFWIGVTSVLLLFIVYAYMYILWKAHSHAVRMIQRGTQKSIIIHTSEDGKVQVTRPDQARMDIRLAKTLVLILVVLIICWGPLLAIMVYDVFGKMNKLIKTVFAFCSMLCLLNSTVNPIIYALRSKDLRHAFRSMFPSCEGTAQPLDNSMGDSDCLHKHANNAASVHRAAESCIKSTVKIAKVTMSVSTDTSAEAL
procedureSummary: Competition receptor binding with [3H]CP-55,940, CHO-hCB1 membranes
conditionParameters: CHO-hCB1 membranes, Cheng-Prusoff from IC50
reportedEndpoint: Ki (nM)

* COc1ccc2c(c1)CCC(c1ccccc1)=C2c1ccc(OCCN2CCCC2)cc1 | 957

* * *

measuredOn: human cannabinoid type-1 receptors (hCB1) (Homo sapiens)
Construct: host or cells: CHO cells (CHO-hCB1), membranes or intact cells
procedureSummary: [35S]GTPγS binding, CHO-hCB1 membranes
Format: biochemical
Method: In short, pellets were thawed on ice, combined in a 40 ml glass Dounce homogenizer and homogenized in 20 ml of cold buffer (50 mM HEPES at pH 7.4, 3 mM MgCl2, and 1 mM EGTA) using 10 strokes. […] Protein concentration was determined the same day, prior to freezing, using BCA^TM Protein Assay (Thermo Fisher Scientific, Waltham, MA, USA). Non-specific binding was defined by radioactivity remaining in the presence of 10 μM of non-radioactive GTPγS. […]
pIC50: −log10 of the molar value.
reportedEndpoint: pIC50

- OCCOc1ccc(/C(=C(/CCCl)c2ccccc2)c2ccccc2)cc1: 6.77

* * *

measuredOn: human cannabinoid type-2 receptors (hCB2) (Homo sapiens, UniProt P34972)
Construct: expressed in transfected cells; host or cells: CHO cells (CHO-hCB2), membranes or intact cells
procedureSummary: Antagonism of CP-55,940 inhibition of adenylyl cyclase, intact CHO-hCB2 cells
Type: cell-based
conditionParameters: CHO-hCB2 cells; pre-incubation 30 min: OSP, NAF 10 μM, RAL, BAZ 2 μM, AM-630 1 μM
reportedEndpoint: IMAX of CP-55,940 after pre-incubation with the drug (%)

* COc1ccc(C(=O)c2c(C)n(CCN3CCOCC3)c3cc(I)ccc23)cc1 [AM-630] | 31.7
* O=C(c1ccc(OCCN2CCCCC2)cc1)c1c(-c2ccc(O)cc2)sc2cc(O)ccc12 [RAL, raloxifene] | 33.0
* OCCOc1ccc(/C(=C(/CCCl)c2ccccc2)c2ccccc2)cc1 [OSP, ospemifene] | 31.7
* COc1ccc2c(c1)CCC(c1ccccc1)=C2c1ccc(OCCN2CCCC2)cc1 [NAF, nafoxidine] | 32.3

* * *

measuredOn: human cannabinoid type-2 receptors (hCB2) (Homo sapiens)
Construct: expressed in transfected cells; host or cells: CHO cells (CHO-hCB2), membranes or intact cells
procedureSummary: Competition receptor binding with [3H]CP-55,940, CHO-hCB2 membranes
conditionParameters: affinity for hCB2Rs (Ki), CHO-hCB2 membranes
Procedure: Membrane homogenates were prepared for competition receptor binding and [^35S]GTPγS binding studies by using pellets previously frozen of CHO-hCB1 or CHO-hCB2 cells as described in ([Franks et al., 2014]). […] Protein concentration was determined the same day, prior to freezing, using BCA^TM Protein Assay (Thermo Fisher Scientific, Waltham, MA, USA). […]
pKi: −log10 of the molar value.
reportedEndpoint: pKi

- OCCOc1ccc(/C(=C(/CCCl)c2ccccc2)c2ccccc2)cc1: 5.40 to 6.00

* * *

Reported pEC50 is given for each of the following compounds.
measuredOn: human cannabinoid type-2 receptors (hCB2) (Homo sapiens, UniProt P34972)
procedureSummary: Adenylyl cyclase assay (forskolin-stimulated cAMP), intact CHO-hCB2 cells
conditionParameters: increase of cAMP, 10 μM forskolin, read-out: EC50, Intracellular [3H]cAMP
pEC50: −log10 of the molar value.
reportedEndpoint: pEC50

- OCCOc1ccc(/C(=C(/CCCl)c2ccccc2)c2ccccc2)cc1 [OSP, ospemifene]: 5.84
- O=C(c1ccc(OCCN2CCCCC2)cc1)c1c(-c2ccc(O)cc2)sc2cc(O)ccc12 [RAL, raloxifene]: 6.06
- COc1ccc(C(=O)c2c(C)n(CCN3CCOCC3)c3cc(I)ccc23)cc1 [AM-630]: 6.40
- Cc1c(-c2ccc(O)cc2)n(Cc2ccc(OCCN3CCCCCC3)cc2)c2ccc(O)cc12 [BAZ, bazedoxifene]: 5.70

* * *

measuredOn: human cannabinoid type-2 receptors (hCB2) (Homo sapiens, UniProt P34972)
Construct: expressed in transfected cells; host or cells: CHO cells (CHO-hCB2), membranes or intact cells
procedureSummary: [35S]GTPγS binding, CHO-hCB2 membranes
Type: biochemical
conditionParameters: maximal reduction of basal G-protein activity, CHO-hCB2
reportedEndpoint: IMAX, GTPγS Binding (% Basal) CHO-hCB2

• Cc1c(-c2ccc(O)cc2)n(Cc2ccc(OCCN3CCCCCC3)cc2)c2ccc(O)cc12 = 34.0 ± 1.0^b,∗ %
• COc1ccc2c(c1)CCC(c1ccccc1)=C2c1ccc(OCCN2CCCC2)cc1 = 38.7 ± 1.2^a,b,∗∗ %
• O=C(c1ccc(OCCN2CCCCC2)cc1)c1c(-c2ccc(O)cc2)sc2cc(O)ccc12 = 34.3 ± 2.2^b,∗∗ %
• OCCOc1ccc(/C(=C(/CCCl)c2ccccc2)c2ccccc2)cc1 = 39.7 ± 2.4^a,∗∗ %

* * *

measuredOn: human cannabinoid type-2 receptors (hCB2) (Homo sapiens)
Construct: expressed in transfected cells; host or cells: CHO cells (CHO-hCB2), membranes or intact cells
procedureSummary: [35S]GTPγS binding, CHO-hCB2 membranes
Type: biochemical
conditionParameters: reduction of basal G-protein activity, CHO-hCB2 membranes; read-out: IC50, GTPγS Binding CHO-hCB2
# maps each entry to its IC50
reportedEndpoint: IC50

* OCCOc1ccc(/C(=C(/CCCl)c2ccccc2)c2ccccc2)cc1 | 0.558 µM
* Cc1c(-c2ccc(O)cc2)n(Cc2ccc(OCCN3CCCCCC3)cc2)c2ccc(O)cc12 | 0.0716 µM
* O=C(c1ccc(OCCN2CCCCC2)cc1)c1c(-c2ccc(O)cc2)sc2cc(O)ccc12 | 0.0871 µM

* * *

measuredOn: human cannabinoid type-2 receptors (hCB2) (Homo sapiens, UniProt P34972)
Construct: expressed in transfected cells; host or cells: CHO cells (CHO-hCB2), membranes or intact cells
procedureSummary: Competition receptor binding with [3H]CP-55,940, CHO-hCB2 membranes
conditionParameters: pKi, [3H]CP-55,940 Binding CHO-hCB2
Procedure: Membrane homogenates were prepared for competition receptor binding and [^35S]GTPγS binding studies by using pellets previously frozen of CHO-hCB1 or CHO-hCB2 cells as described in ([Franks et al., 2014]). […] Protein concentration was determined the same day, prior to freezing, using BCA^TM Protein Assay (Thermo Fisher Scientific, Waltham, MA, USA). […]
reportedEndpoint: Ki

* Cc1c(-c2ccc(O)cc2)n(Cc2ccc(OCCN3CCCCCC3)cc2)c2ccc(O)cc12 | 0.254 µM

* * *

measuredOn: human cannabinoid type-1 receptors (hCB1) (Homo sapiens)
Construct: host or cells: CHO cells (CHO-hCB1), membranes or intact cells
procedureSummary: Competition receptor binding with [3H]CP-55,940, CHO-hCB1 membranes
reportedEndpoint: Ki (µM)

* OCCOc1ccc(/C(=C(/CCCl)c2ccccc2)c2ccccc2)cc1 | 0.753

* * *

Measured pKi by item
measuredOn: human cannabinoid type-2 receptors (hCB2) (Homo sapiens)
Construct: expressed in transfected cells; host or cells: CHO cells (CHO-hCB2), membranes or intact cells
procedureSummary: Competition receptor binding with [3H]CP-55,940, CHO-hCB2 membranes
conditionParameters: Ki, [3H]CP-55,940 Binding CHO-hCB2, CHO-hCB2 membranes, Cheng-Prusoff from IC50
pKi: −log10 of the molar value.
reportedEndpoint: pKi

- COc1ccc2c(c1)CCC(c1ccccc1)=C2c1ccc(OCCN2CCCC2)cc1 [NAF, nafoxidine]: 5.89
- OCCOc1ccc(/C(=C(/CCCl)c2ccccc2)c2ccccc2)cc1 [OSP, ospemifene]: 5.43

* * *

measuredOn: human cannabinoid type-2 receptors (hCB2) (Homo sapiens)
Construct: expressed in transfected cells; host or cells: CHO cells (CHO-hCB2), membranes or intact cells
procedureSummary: Competition receptor binding with [3H]CP-55,940, CHO-hCB2 membranes
conditionParameters: pKi, [3H]CP-55,940 Binding CHO-hCB2, CHO-hCB2 membranes, mean ± SEM
pKi: −log10 of the molar value.
reportedEndpoint: pKi

- O=C(c1ccc(OCCN2CCCCC2)cc1)c1c(-c2ccc(O)cc2)sc2cc(O)ccc12 [RAL, raloxifene]: 6.62
